These data points were gathered from paper PMC8014892.

- experimental details: Permeation across symmetric and asymmetric DIBs containing 30% DOPC 70% DOPS, droplet pairs, fluorescence microscopy
- Assay type: in vitro ADME
- condition info: not told, pH 6, pH 6, donor 30% DOPC 70% DOPS, acceptor 100% DOPC (asymmetric)

>  <smiles data>
CC/N=c1\cc2oc3cc(NCC)c(C)cc3c(-c3ccccc3C(=O)OCC)c-2cc1C

>  <Papp at 50 µM [×10⁻⁶ cm/s]>
19.6

$$$$

----------
- experimental details: Permeation across symmetric and asymmetric DIBs containing 30% DOPC 70% DOPS, droplet pairs, fluorescence microscopy
- Type: in vitro ADME
- condition info: not told, pH 6, pH 6, donor 30% DOPC 70% DOPS, acceptor 30% DOPC 70% DOPS (symmetric)

>  <smiles data>
CC/N=c1\cc2oc3cc(NCC)c(C)cc3c(-c3ccccc3C(=O)OCC)c-2cc1C

>  <Papp at 50 µM (×10⁻⁶ cm/s)>
12.1

$$$$
